System: HIV-1 strain IIIB in T lymphoid MT-2 cell lines
Assay: inhibition of growth of HIV-1 strain IIIB in T lymphoid MT-2 cell lines (metabolic MTT dye)
Assay type: cell-based
Conditions: Human immunodeficiency virus 1, IIIB, MT2, 120 h, 0.156 μg/ml; 5 days; read-out: % Inhibition at concentration 0.156 μg/ml

compound	inhibition at 0.156 µg/mL / %
CC(C)(C)NC(=O)[C@@H]1C[C@@H]2CCCC[C@@H]2CN1CC(O)C[C@@H](Cc1ccccc1)C(=O)N[C@H]1CCCC[C@@H]1NC(=O)c1ccc2ccccc2n1 (some centres unmarked) [Example 37]	0
CC[C@H](C)[C@H](NC(=O)[C@H](Cc1ccccc1)CC(O)CN1C[C@H]2CCCC[C@H]2C[C@H]1C(=O)NC(C)(C)C)C(=O)N[C@@H](C)c1nc2ccccc2[nH]1 (some centres unmarked) [Example 51]	10.4
CC(C)(C)NC(=O)[C@@H]1C[C@@H]2CCCC[C@@H]2CN1CC(O)C[C@@H](Cc1ccccc1)C(=O)N[C@H]1CCCC[C@@H]1NC(=O)c1cc2ccccc2cn1 (some centres unmarked) [Example 42]	4.21
CC[C@H](C)[C@H](NC(=O)[C@H](Cc1ccccc1)CC(O)CN1C[C@H]2CCCC[C@H]2C[C@H]1C(=O)NC(C)(C)C)C(=O)NCc1nc2ccccc2[nH]1 (single isomer, unassigned) [Example 24A]	100
CC[C@H](C)[C@H](NC(=O)[C@H](Cc1ccccc1)CC(O)(CO)CN1C[C@H]2CCCC[C@H]2C[C@H]1C(=O)NC(C)(C)C)C(=O)NCc1nc2ccccc2[nH]1 (some centres unmarked) [Example 21]	33
CC[C@H](C)[C@H](NC(=O)[C@H](Cc1ccccc1)CC(O)CN1C[C@H]2CCCC[C@H]2C[C@H]1C(=O)NC(C)(C)C)C(=O)NCc1nc2ccccc2[nH]1 (some centres unmarked) [Example 23]	93.6
CC(C)(C)NC(=O)[C@@H]1C[C@@H]2CCCC[C@@H]2CN1CC(O)(CO)C[C@@H](Cc1ccccc1)C(=O)N[C@H]1CCCC[C@@H]1NC(=O)c1cc2ccccc2cn1 (some centres unmarked) [Example 40]	1.88
CC(C)(C)NC(=O)[C@@H]1C[C@@H]2CCCC[C@@H]2CN1CC(O)(CO)C[C@@H](Cc1ccccc1)C(=O)N[C@H]1CCCC[C@@H]1NC(=O)c1ccc2ccccc2n1 (some centres unmarked) [Example 35]	1.97

----------
Target: HIV-1 protease (Human immunodeficiency virus type 1 group M subtype B, UniProt P04585)
Assay: biochemical
Format: biochemical
pIC50: −log10 of the molar value.

molecule	pIC50
CC(C)(C)NC(=O)[C@@H]1C[C@@H]2CCCC[C@@H]2CN1CC(O)C[C@@H](Cc1ccccc1)C(=O)N[C@H]1CCCC[C@@H]1NC(=O)c1ccc2ccccc2n1 (some centres unmarked) [Example 37]	7.14
CC[C@H](C)[C@H](NC(=O)[C@H](Cc1ccccc1)CC(O)CN1C[C@H]2CCCC[C@H]2C[C@H]1C(=O)NC(C)(C)C)C(=O)N[C@@H](C)c1nc2ccccc2[nH]1 (some centres unmarked) [Example 51]	6.89

----------
Target: HIV-1 protease (Human immunodeficiency virus type 1 group M subtype B)
Assay: biochemical
Assay type: biochemical
Settings: Activity of Compounds as Enzyme Inhibitor
Protocol: IC50 values for enzyme inhibition are determined using HIV-1 and Amersham's HIV proteinase [^125 I]-scintillation proximity assay (SPA). Amersham's HIV proteinase [^125 I]-SPA system is a commercial assay incorporating the scintillation proximity assay (SPA) principle available from Amersham International PLC, Bucks, England. The SPA microspheres provided by Amersham have the substrate linked directly to the surface through a streptavidin-biotin link. […]
experimental.readout: log10 IC50 (log10 of the value in µM)

compound	log10 IC50
CC[C@H](C)[C@H](NC(=O)[C@H](Cc1ccccc1)CC(O)CN1C[C@H]2CCCC[C@H]2C[C@H]1C(=O)NC(C)(C)C)C(=O)NCc1ccccn1 (some centres unmarked)	-0.81
CC(C)(C)NC(=O)[C@@H]1C[C@@H]2CCCC[C@@H]2CN1CC(O)(CO)C[C@@H](Cc1ccccc1)C(=O)N[C@H]1CCCC[C@@H]1NC(=O)c1cc2ccccc2cn1 (some centres unmarked)	-1.26
CC[C@H](C)[C@H](NC(=O)[C@H](Cc1ccccc1)CC(O)(CO)CN1C[C@H]2CCCC[C@H]2C[C@H]1C(=O)NC(C)(C)C)C(=O)OC (relative stereo)	-0.38
CC[C@H](C)[C@H](NC(=O)[C@H](Cc1ccccc1)CC(O)CN1C[C@H]2CCCC[C@H]2C[C@H]1C(=O)NC(C)(C)C)C(=O)OC (some centres unmarked)	-0.06
CC(C)(C)NC(=O)[C@@H]1C[C@@H]2CCCC[C@@H]2CN1CC(O)(CO)C[C@@H](Cc1ccccc1)C(=O)N[C@H]1CCCC[C@@H]1NC(=O)c1ccc2ccccc2n1 (some centres unmarked)	-1.16

----------
Biological target: HIV-1 protease (Human immunodeficiency virus type 1 group M subtype B, UniProt P04585)
Assay: biochemical
Format: biochemical
Conditions: Activity of Compounds as Enzyme Inhibitor
pIC50: −log10 of the molar value.

compound	pIC50
CC[C@H](C)[C@H](NC(=O)[C@H](Cc1ccccc1)CC(O)CN1C[C@H]2CCCC[C@H]2C[C@H]1C(=O)NC(C)(C)C)C(=O)NCc1nc2ccccc2[nH]1 (single isomer, unassigned) [Example 24A]	7.14
CC[C@H](C)[C@H](NC(=O)[C@H](Cc1ccccc1)CC(O)CN1C[C@H]2CCCC[C@H]2C[C@H]1C(=O)NC(C)(C)C)C(=O)NCc1nc2ccccc2[nH]1 (single isomer, unassigned) [Example 24B]	7.14
CC(C)(C)NC(=O)[C@@H]1C[C@@H]2CCCC[C@@H]2CN1CC(O)C[C@@H](Cc1ccccc1)C(=O)N[C@H]1CCCC[C@@H]1NC(=O)c1cc2ccccc2cn1 (stereo partly drawn)	7.10
CC[C@H](C)[C@H](NC(=O)[C@H](Cc1ccccc1)CC(O)(CO)CN1C[C@H]2CCCC[C@H]2C[C@H]1C(=O)NC(C)(C)C)C(=O)NCc1nc2ccccc2[nH]1 (stereo partly drawn)	7.16
CC[C@H](C)[C@H](NC(=O)[C@H](Cc1ccccc1)CC(O)CN1C[C@H]2CCCC[C@H]2C[C@H]1C(=O)NC(C)(C)C)C(=O)NCc1nc2ccccc2[nH]1 (stereo partly drawn) [Example 23]	7.14
CC[C@H](C)[C@H](NC(=O)[C@H](Cc1ccccc1)CC(O)(CO)CN1C[C@H]2CCCC[C@H]2C[C@H]1C(=O)NC(C)(C)C)C(=O)NCc1ccccn1 (stereo partly drawn)	6.13

----------
Tested on: HIV-1 strain IIIB in T lymphoid MT-2 cell lines
Assay: inhibition of growth of HIV-1 strain IIIB in T lymphoid MT-2 cell lines (metabolic MTT dye)
Assay type: cell-based
Conditions: Human immunodeficiency virus 1, IIIB, MT2, 120 h, 0.625 μg/ml; 5 days; read-out: % Inhibition at concentration 0.625 μg/ml
inhibition at 0.625 µg/mL for assorted molecules
experimental.readout: inhibition at 0.625 µg/mL (%)

molecule	experimental.readout	endpoint.value
CC[C@H](C)[C@H](NC(=O)[C@H](Cc1ccccc1)CC(O)(CO)CN1C[C@H]2CCCC[C@H]2C[C@H]1C(=O)NC(C)(C)C)C(=O)NCc1nc2ccccc2[nH]1 (stereo partly drawn)	inhibition at 0.625 µg/mL	103
CC(C)(C)NC(=O)[C@@H]1C[C@@H]2CCCC[C@@H]2CN1CC(O)(CO)C[C@@H](Cc1ccccc1)C(=O)N[C@H]1CCCC[C@@H]1NC(=O)c1ccc2ccccc2n1 (stereo partly drawn)	inhibition at 0.625 µg/mL	0
CC[C@H](C)[C@H](NC(=O)[C@H](Cc1ccccc1)CC(O)CN1C[C@H]2CCCC[C@H]2C[C@H]1C(=O)NC(C)(C)C)C(=O)NCc1nc2ccccc2[nH]1 (single isomer, unassigned) [Example 24A]	inhibition at 0.625 µg/mL	103

----------
Tested on: HIV-1 strain IIIB in T lymphoid MT-2 cell lines
Assay: inhibition of growth of HIV-1 strain IIIB in T lymphoid MT-2 cell lines (metabolic MTT dye)
Type: cell-based
Details: Human immunodeficiency virus 1, IIIB, MT2, 120 h, 0.010 μg/ml; 5 days; read-out: % Inhibition at concentration 0.010 μg/ml
inhibition at 0.01 µg/mL for assorted molecules
experimental.readout: inhibition at 0.01 µg/mL (%)

molecule	endpoint.value
CC(C)(C)NC(=O)[C@@H]1C[C@@H]2CCCC[C@@H]2CN1CC(O)(CO)C[C@@H](Cc1ccccc1)C(=O)N[C@H]1CCCC[C@@H]1NC(=O)c1cc2ccccc2cn1 (some centres unmarked) [Example 40]	0
CC(C)(C)NC(=O)[C@@H]1C[C@@H]2CCCC[C@@H]2CN1CC(O)C[C@@H](Cc1ccccc1)C(=O)N[C@H]1CCCC[C@@H]1NC(=O)c1cc2ccccc2cn1 (some centres unmarked) [Example 42]	4.33
CC[C@H](C)[C@H](NC(=O)[C@H](Cc1ccccc1)CC(O)(CO)CN1C[C@H]2CCCC[C@H]2C[C@H]1C(=O)NC(C)(C)C)C(=O)NCc1nc2ccccc2[nH]1 (some centres unmarked) [Example 21]	0
CC[C@H](C)[C@H](NC(=O)[C@H](Cc1ccccc1)CC(O)CN1C[C@H]2CCCC[C@H]2C[C@H]1C(=O)NC(C)(C)C)C(=O)N[C@@H](C)c1nc2ccccc2[nH]1 (some centres unmarked) [Example 51]	1.67
CC[C@H](C)[C@H](NC(=O)[C@H](Cc1ccccc1)CC(O)CN1C[C@H]2CCCC[C@H]2C[C@H]1C(=O)NC(C)(C)C)C(=O)NCc1nc2ccccc2[nH]1 (some centres unmarked) [Example 23]	13
CC(C)(C)NC(=O)[C@@H]1C[C@@H]2CCCC[C@@H]2CN1CC(O)C[C@@H](Cc1ccccc1)C(=O)N[C@H]1CCCC[C@@H]1NC(=O)c1ccc2ccccc2n1 (some centres unmarked) [Example 37]	0.95
CC(C)(C)NC(=O)[C@@H]1C[C@@H]2CCCC[C@@H]2CN1CC(O)(CO)C[C@@H](Cc1ccccc1)C(=O)N[C@H]1CCCC[C@@H]1NC(=O)c1ccc2ccccc2n1 (some centres unmarked) [Example 35]	0
CC[C@H](C)[C@H](NC(=O)[C@H](Cc1ccccc1)CC(O)CN1C[C@H]2CCCC[C@H]2C[C@H]1C(=O)NC(C)(C)C)C(=O)NCc1nc2ccccc2[nH]1 (single isomer, unassigned) [Example 24A]	10.7
